B1: PLD5 (parent)
chain: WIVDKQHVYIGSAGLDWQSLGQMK

variants of: B1; assay: protein stability index of a GFP-peptide fusion (GPS, HEK-293T) (PSI 1-6); higher = more stable; conditions: c terminus: a fixed tail appended;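 further: lentivirally expressed fusions sorted by FACS into six bins by GFP to DsRed ratio, PSI derived from sequencing read proportions per bin multiplied by bin number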
endpoint: protein stability index

INSERT INTO assay_data (mutation_code, recorded_value) VALUES
  ('W1A', 2.11),
  ('Q18L', 2.15),
  ('Q6P', 1.5),
  ('D4V', 3.83),
  ('I2C', 1.83),
  ('M23E', 2.11),
  ('M23K', 1.69),
  ('K24T', 2.23),
  ('G14H', 2.29),
  ('G11M', 2.25),
  ('V3G', 2.1),
  ('Q22E', 1.59),
  ('K24F', 2.05),
  ('V3Y', 1.56),
  ('L20P', 2.1),
  ('W1C', 1.59),
  ('K5P', 1.74),
  ('G11L', 2.88),
  ('G21V', 2.13),
  ('Q6Y', 1.41),
  ('Q6W', 4.19),
  ('G11H', 1.92),
  ('I2M', 1.5),
  ('S12F', 3.2),
  ('W1L', 2.12),
  ('M23Q', 2.09),
  ('L20V', 2),
  ('L15Y', 1.67),
  ('Q22Y', 2.35),
  ('Q18I', 2.62),
  ('G21W', 1.68),
  ('H7E', 1.42),
  ('G11W', 2.27),
  ('V8G', 1.35),
  ('G14M', 1.63),
  ('I2S', 2.08),
  ('I10N', 2.16),
  ('H7Y', 2.6),
  ('L15K', 2.02),
  ('K5T', 2.98),
  ('V3Q', 1.83),
  ('G14I', 2.97),
  ('Q6E', 1.95),
  ('G21H', 2.52),
  ('A13H', 1.45),
  ('S12Y', 1.73),
  ('W17K', 1.72),
  ('S19A', 2.23),
  ('G11I', 2.71),
  ('W17L', 1.64),
  ('I2E', 2.18),
  ('A13L', 2.44),
  ('D16K', 1.68),
  ('L15V', 1.54),
  ('W17C', 1.73),
  ('D4N', 3.09),
  ('D4Q', 1.45),
  ('Y9G', 1.96),
  ('I10T', 1.81),
  ('W17F', 1.91),
  ('W1H', 2.12),
  ('L20I', 1.97),
  ('L20W', 1.85),
  ('W17D', 1.94),
  ('S12E', 1.52),
  ('S19Y', 1.91),
  ('A13I', 3.29),
  ('K24D', 2.02),
  ('S19N', 1.45),
  ('V3C', 1.6),
  ('M23D', 2.15),
  ('G11S', 2.22),
  ('W17E', 2.1),
  ('I10H', 1.93),
  ('D4L', 1.84),
  ('A13T', 2.02),
  ('D16S', 2.26),
  ('I10P', 1.79),
  ('Y9E', 2.13),
  ('S19W', 2.5),
  ('Y9M', 1.58),
  ('I2D', 2.16),
  ('A13M', 1.9),
  ('S12I', 3.48),
  ('G11D', 1.46),
  ('L20E', 2.3),
  ('I10D', 2.41),
  ('L15C', 1.47),
  ('I10Q', 1.83),
  ('S12Q', 1.6),
  ('W1I', 3.17);
